Provide the reported IC50 of each item.
Target: T1, human amylin receptor 3 (human, UniProt P30988 25-474; O60896 24-148)
T1 construct: whole, on cells; also called AMY3; Human AMY3
T1 sequence (looked up) 1: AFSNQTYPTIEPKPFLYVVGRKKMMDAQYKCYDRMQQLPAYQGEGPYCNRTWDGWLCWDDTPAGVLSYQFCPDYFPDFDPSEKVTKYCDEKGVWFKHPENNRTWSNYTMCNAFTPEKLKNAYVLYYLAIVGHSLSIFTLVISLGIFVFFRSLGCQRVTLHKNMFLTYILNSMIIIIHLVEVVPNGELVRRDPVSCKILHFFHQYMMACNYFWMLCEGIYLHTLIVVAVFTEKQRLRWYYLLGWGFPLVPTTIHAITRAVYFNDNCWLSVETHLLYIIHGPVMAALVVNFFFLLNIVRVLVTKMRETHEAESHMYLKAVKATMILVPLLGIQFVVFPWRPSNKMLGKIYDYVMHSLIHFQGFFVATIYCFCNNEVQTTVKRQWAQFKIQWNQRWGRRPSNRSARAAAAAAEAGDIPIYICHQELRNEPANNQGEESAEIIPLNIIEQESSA
T1 sequence (looked up) 2: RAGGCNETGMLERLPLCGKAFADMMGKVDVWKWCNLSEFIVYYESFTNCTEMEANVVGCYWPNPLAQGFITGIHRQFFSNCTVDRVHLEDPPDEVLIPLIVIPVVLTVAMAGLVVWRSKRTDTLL
Test: competition with 125I-rat amylin, human AMY3 receptor
Ends that are not written are not given here. mPEG40KD = methoxy-PEG of 40 kDa
Numbers only, in nM.

Would you please look over these solved cases?
The binder listed as CNTATCATQRLANFLVHSSNNFGPK(mPEG40KD)LPPTNVGSNTY-NH2 (ends and bridges not checked, also called Cmpd 77) [[K^26(mPEG40KD)]-Cmpd 60] shows IC50 equal to 60

So, CNTATCATQRLANFLVHSSNNFGPILK(mPEG40KD)PTNVGSNTY-NH2 (ends and bridges not checked, also called Cmpd 83) [[K^28(mPEG40KD)]-Cmpd 65] ? Its IC50 was 46

Now look at this entry.
IC50 for CNTATCATQRLANFLK(mPEG 40 kDa)HSSNNFGPILPPTNVGSNTY-NH2 (ends and bridges not checked, also called Cmpd 89) [[K^17(mPEG40KD)]-Cmpd 58] is 334
